FYI, the data here is from paper PMC6543911.

pIC50 values recorded for AKT1 (Homo sapiens, UniProt P31749)
pIC50: −log10 of the molar value.
Measured Attribute: pIC50

{"columns": ["Compound", "Measured Value"],
 "data": [
  ["COc1ccc2oc(=O)c(C(=O)c3ccccc3)cc2c1", 4.93],
  ["O=C(NCCCNc1nc(Nc2cccc(NC(=O)N3CCCC3)c2)ncc1I)c1cccs1 [BX-795, reference compound]", 5.54]
]}

----------
Attribute: log10 IC50
molecular target: MARK4 catalytic domain (Homo sapiens, UniProt Q96L34); construct: The recombinant MARK4 catalytic domain was used as kinase; experiment: Kinase activity assay (ADP-Glo) using MARK4 as enzyme; settings: MARK4 5 nM, 100 μM ATP, 5 μM MAP4, 30 min; duplicate, means ± SEM
Sequence (Q96L34 59-310 limits assumed): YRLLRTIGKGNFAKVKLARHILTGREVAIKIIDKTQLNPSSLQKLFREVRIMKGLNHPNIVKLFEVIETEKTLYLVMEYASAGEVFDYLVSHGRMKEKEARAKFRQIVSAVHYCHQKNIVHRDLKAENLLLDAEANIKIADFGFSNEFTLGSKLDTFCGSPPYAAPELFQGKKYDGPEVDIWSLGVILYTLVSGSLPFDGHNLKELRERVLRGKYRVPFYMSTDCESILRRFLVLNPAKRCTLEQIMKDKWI
Measured Attribute: log10 IC50 (log10 of the value in µM)

{"columns": ["Compound", "Assay System", "log10 IC50"],
 "data": [
  ["COc1cc(Br)cc2cc(-c3ccccc3)c(=O)oc12", "MARK4 catalytic domain (Homo sapiens, UniProt Q96L34)", 1.61],
  ["COc1cc(=O)oc2ccccc12", "MARK4 catalytic domain (Homo sapiens, UniProt Q96L34)", 1.61],
  ["COc1ccc2oc(=O)c(C(=O)c3ccccc3)cc2c1", "MARK4 catalytic domain (Homo sapiens, UniProt Q96L34)", 0.11],
  ["COc1cc(Br)cc2cc(-c3ccc(Cl)cc3)c(=O)oc12", "MARK4 catalytic domain (Homo sapiens, UniProt Q96L34)", 1.23],
  ["O=C(c1ccccc1)c1cc2c(ccc3ccccc32)oc1=O", "MARK4 catalytic domain (Homo sapiens, UniProt Q96L34)", 1.33],
  ["COc1ccc(-c2cc3ccccc3oc2=O)cc1", "MARK4 catalytic domain (Homo sapiens, UniProt Q96L34)", 1.57],
  ["COc1ccc(-c2cc3cc(Br)cc(OC)c3oc2=O)cc1OC", "MARK4 catalytic domain (Homo sapiens, UniProt Q96L34)", 1.67],
  ["COc1cc(-c2cc3cccc(OC)c3oc2=O)cc(OC)c1OC", "MARK4 catalytic domain (Homo sapiens, UniProt Q96L34)", 1.54],
  ["COc1cccc(-c2cc3cccc(OC)c3oc2=O)c1", "MARK4 catalytic domain (Homo sapiens, UniProt Q96L34)", 0.95],
  ["COc1cccc2cc(C(C)=O)c(=O)oc12", "MARK4 catalytic domain (Homo sapiens, UniProt Q96L34)", 1.16],
  ["COc1cccc(-c2cc3cc(Cl)cc(Cl)c3oc2=O)c1 [Compound 25]", "MARK4 catalytic domain (Homo sapiens, UniProt Q96L34)", 0.89],
  ["COc1cc(Br)cc2cc(-c3ccc(F)cc3)c(=O)oc12", "MARK4 catalytic domain (Homo sapiens, UniProt Q96L34)", 1.59],
  ["COc1ccc(-c2cc3ccccc3sc2=O)cc1OC", "MARK4 catalytic domain (Homo sapiens, UniProt Q96L34)", 1.05],
  ["O=c1oc2c(Cl)cc(Cl)cc2cc1-c1ccccc1", "MARK4 catalytic domain (Homo sapiens, UniProt Q96L34)", 1.62],
  ["COc1cccc2cc(-c3ccccc3)c(=O)oc12", "MARK4 catalytic domain (Homo sapiens, UniProt Q96L34)", 1.50],
  ["CC(C)(C)C(=O)c1cc2ccccc2oc1=O", "MARK4 catalytic domain (Homo sapiens, UniProt Q96L34)", 1.40],
  ["O=c1oc2ccccc2cc1-c1ccccc1", "MARK4 catalytic domain (Homo sapiens, UniProt Q96L34)", 1.54],
  ["COc1ccc2oc(=O)ccc2c1", "MARK4 catalytic domain (Homo sapiens, UniProt Q96L34)", 1.54],
  ["COc1ccc(-c2cc3cc(Cl)cc(Cl)c3oc2=O)cc1", "MARK4 catalytic domain (Homo sapiens, UniProt Q96L34)", 1.00],
  ["COc1ccc2ccc(=O)oc2c1", "MARK4 catalytic domain (Homo sapiens, UniProt Q96L34)", 1.40],
  ["O=C(c1ccccc1)c1cc2cc(Cl)ccc2oc1=O", "MARK4 catalytic domain (Homo sapiens, UniProt Q96L34)", 0.61],
  ["COc1cccc2cc(C(=O)c3ccccc3)c(=O)oc12", "MARK4 catalytic domain (Homo sapiens, UniProt Q96L34)", 0.32],
  ["O=c1sc2ccccc2cc1-c1ccc(F)cc1", "MARK4 catalytic domain (Homo sapiens, UniProt Q96L34)", 1.51],
  ["COc1ccc(-c2cc3cccc(OC)c3oc2=O)cc1OC", "MARK4 catalytic domain (Homo sapiens, UniProt Q96L34)", 1.47],
  ["O=c1ccc2ccccc2o1", "MARK4 catalytic domain (Homo sapiens, UniProt Q96L34)", 1.61],
  ["COc1cc(-c2cc3cc(Br)cc(OC)c3oc2=O)c(OC)c(OC)c1OC", "MARK4 catalytic domain (Homo sapiens, UniProt Q96L34)", 1.53]
]}

----------
Molecular target: MARK4 catalytic domain (Homo sapiens, UniProt Q96L34)
Construct: The recombinant MARK4 catalytic domain was used as kinase
Experiment: Kinase activity assay (ADP-Glo) using MARK4 as enzyme
Settings: MARK4 5 nM, 100 μM ATP, 5 μM MAP4, 30 min; duplicate, means ± SEM
Method: MARK4 catalytic domain sequence was subcloned into pET-28a vector. Protein expression in E. coli. […] The kinase activity of MARK4 was measured via ADP-Glo™ kinase assay kit (Promega, USA) under manufacturer's instruction. […] The reaction progress was monitored on Thermo Scientific Varioskan Flash Multimode Reader. […]
Measured Attribute: IC50 (µM)

{"columns": ["Compound Smiles", "Relation Sign", "Measured Value"],
 "data": [
  ["COc1cc(Br)cc2cc(-c3cccc(O)c3)c(=O)oc12", ">", 50],
  ["COc1cc(Br)cc2cc(-c3ccc(O)cc3)c(=O)oc12", ">", 50],
  ["COc1cc(OC)c2c(C)cc(=O)oc2c1", ">", 50],
  ["COc1ccccc1-c1cc2cc(Cl)ccc2oc1=O", ">", 50],
  ["COc1ccc(-c2cc3cccc(OC)c3oc2=O)cc1", "=", 22.8],
  ["Cc1cc(=O)oc2cc(O)cc(O)c12", ">", 50],
  ["COc1cc(Br)cc2cc(-c3cccnc3)c(=O)oc12", ">", 50],
  ["O=c1ccc2cc(Cl)ccc2o1", ">", 50],
  ["COc1cccc2cc(-c3ccc(F)cc3)c(=O)oc12", ">", 50],
  ["COc1ccc(-c2cc3cc(Cl)cc(Cl)c3oc2=O)cc1OC", "=", 17.4],
  ["COc1cccc(-c2cc3cc(Br)cc(OC)c3oc2=O)c1", "=", 12.8],
  ["COc1ccc(-c2cc3cc(Cl)ccc3oc2=O)cc1", "=", 27],
  ["O=c1ccc2cc([N+](=O)[O-])ccc2o1", "=", 37.9],
  ["CC(=O)c1cc2ccccc2oc1=O", "=", 25.9],
  ["COc1cccc(-c2cc3cc(Cl)cc(Cl)c3oc2=O)c1", "=", 7.8],
  ["O=c1sc2ccccc2cc1-c1ccccc1", "=", 36.1],
  ["COc1cc(Br)cc2cc(-c3cccc(OC(C)=O)c3)c(=O)oc12", ">", 50],
  ["COc1cc(-c2cc3cc(Br)cc(OC)c3oc2=O)cc(OC)c1OC", "=", 37.8],
  ["O=c1oc2ccccc2cc1-c1ccc(F)cc1", "=", 37.7],
  ["COc1ccc(-c2cc3ccccc3sc2=O)cc1", "=", 35.6],
  ["COc1cc(OC)c2c(-c3ccccc3)cc(=O)oc2c1", ">", 50],
  ["COc1ccc(-c2cc3ccccc3oc2=O)cc1OC", ">", 50],
  ["COc1ccc(-c2cc3cc(Cl)ccc3oc2=O)cc1OC", "=", 31],
  ["O=c1oc2ccc(Cl)cc2cc1-c1ccc(Cl)cc1", "=", 28]
]}
